- Test system: DU-145 prostate
- test summary: NCI tumour cell line growth inhibition, 48 h
Listing: TGI of selected compounds

CN1CCN(c2nc(-c3csc(-c4cccs4)n3)cc3ccccc23)CC1	3.34 µM
Cc1cc(O)c(C2=NN(c3ccc(S(N)(=O)=O)cc3)C(/C=C/c3ccccc3)C2)cc1Cl (centres undefined)	38.6 µM
COc1cnc2c(c1)C(=O)c1c-2n(CCCN2CCC(O)CC2)c(=O)c2cc(Cl)ccc12	1.71 µM
NCCN1C(=O)c2ccccc2C1c1ccc(Cl)cc1 (centres undefined)	> 100 µM

Reported TGI, compound CCCCOC1OC(COC(=O)C(C)C)C(OC(=O)C(C)C)C(O)C1OC1OC(C)C(OC(=O)CCC)C(OC(=O)C(C)C)C1O (centres undefined) : ____ 29.8 µM

Fill in the blank: the reported TGI of COc1cc(OC)c2c(c1)OC(c1cccnc1)C(c1ccccc1)C2=O (centres undefined) is ____. > 100 µM

Give its TGI value. Item: COc1cc2oc3c(c(=O)c2c(O)c1/C=C/C(C)C)C(C=C(C)C)Oc1cc(O)ccc1-3 (centres undefined) 30.2 µM

// TGI lookup, key: Cc1ccc(C2(c3ccc(F)cc3)OC(=O)c3ccccc32)c(O)c1 (centres undefined) 28.7 µM

# query: TGI of entry CCn1c(CCl)nc2c1C(=O)c1ccccc1C2=O 9.02 µM

----------
Each item that follows carries a reported TGI.
- Tested on: OVCAR-8 ovarian
- test summary: NCI tumour cell line growth inhibition, 48 h
Value expressed in µM; do not type the unit.

Cc1cccc2c3c(sc12)C(c1ccc(F)cc1)C(C#N)=C(N)O3 (stereo not given)	14.2

Value wanted: TGI (OVCAR-8 ovarian) of entry C[C@@H]1CC(=O)C[C@@H]2CC[C@H]3[C@@H]4CC[C@H](OC(=O)c5cccc6cc7ccccc7nc56)[C@H]4CC[C@@H]3[C@H]21 38

----------
- Test system: SNB-19 CNS
- test summary: NCI tumour cell line growth inhibition, 48 h
quantity measured: TGI

COc1cc(Cl)cc(-c2nn(-c3cccc(NC(=O)Nc4ccc(Cl)c(Cl)c4)c3)cc2-c2ccncc2)c1	> 100 µM
COC(=O)[C@H](Cc1cn(C)cn1)NC(=O)[C@H](C)NC(=O)Nc1cc(C(F)(F)F)cc(C(F)(F)F)c1	> 10 µM
CC1=C(C)CC2(C=C(C(C)(C)C)C(=O)C(C(C)(C)C)=C2)SC1	31.5 µM
COc1ccc(CCN2CCC(CN(C)Cc3cnn(-c4ccccc4)c3)CC2)cc1	66 µM
COc1cc(-c2c3c(cc4c2OCO4)[C@@H](Nc2ccc(-c4ccc(-c5ccc(N[C@@H]6c7cc8c(cc7C(c7cc(OC)c(O)c(OC)c7)[C@H]7C(=O)OC[C@H]67)OCO8)cc5)cc4)cc2)[C@H]2COC(=O)[C@@H]2C3)cc(OC)c1O (stereo partly drawn)	12.5 µM

Item CCCCNc1ccc(Nc2ccccc2)cc1 has what recorded TGI? > 100 µM

Returns the measured TGI for the input molecule. Input: N/C1=C/C(=O)NC(=O)c2c(c3ccccc3oc2=O)C1 > 100 µM

Tell me the measured TGI of COc1cccc(N2C(=O)C3C4C=C5c6ccccc6N(c6ccccc6)C5(C3C2=O)[C@H]2C(=O)N(c3cccc(OC)c3)C(=O)[C@@H]42)c1 (stereo partly drawn) , please. > 100 µM
